- Condition: 313.15 K, Ring tensiometer
Reported Metric: surface tension liquid-gas (mN/m)
Give bare numbers, in mN/m.

Check out these entries, answers already filled in.
CCCC[N+]1(C)CCCC1.O=S(=O)([N-]S(=O)(=O)C(F)(F)F)C(F)(F)F : 33.65
CCn1cc[n+](CC)c1.O=S(=O)([N-]S(=O)(=O)C(F)(F)F)C(F)(F)F [1,3-diethylimidazolium bis[(trifluoromethyl)sulfonyl]imide] : 34.94
CCC[N+]1(C)CCCC1.O=S(=O)([N-]S(=O)(=O)C(F)(F)F)C(F)(F)F : 31.5
CCC[n+]1cccc(C)c1.O=S(=O)([N-]S(=O)(=O)C(F)(F)F)C(F)(F)F : 35.1
CCCCCCCCCCCCCC[P+](CCCCCC)(CCCCCC)CCCCCC.O=S(=O)([N-]S(=O)(=O)C(F)(F)F)C(F)(F)F : 29.52

Look at this compound and give its reported surface tension liquid-gas. CCCCn1cc[n+](C)c1C.O=S(=O)([N-]S(=O)(=O)C(F)(F)F)C(F)(F)F
33.83
